- method: Neurotoxicity in ip dosed Kunming mouse by rotarod test
- Format: toxicity, organism-based
- measurement-context: in vivo
Label Condition met when TD50 is strictly below 200 mg/kg; at or above that, label Condition not met.

Reference set (3 entries):
| compound | label-class |
| --- | --- |
| O=C(/C=C/c1ccc(Cl)cc1)NCCO | Condition met |
| O=C(/C=C/c1ccc(F)cc1)NCCO | Condition met |
| O=C(/C=C/c1ccccc1)NCCO [IDROCILAMIDE] | Condition met |

### Prompt Is it true that TD50 reported for O=C(/C=C/c1ccccc1Br)NCCO is less than 200 mg/kg?
### Response Condition not met

### Prompt Is it true that TD50 reported for O=C(/C=C/c1cccc(Cl)c1)NCCO is less than 200 mg/kg?
### Response Condition met

### Prompt Is it true that TD50 reported for O=C(/C=C/c1cccc(F)c1)NCCO is less than 200 mg/kg?
### Response Condition not met

### Prompt Is it true that TD50 reported for O=C(/C=C/c1ccc2c(c1)OCO2)NCCO is less than 200 mg/kg?
### Response Condition met

### Prompt Is it true that TD50 reported for CN(C)c1ccc(/C=C/C(=O)NCCO)cc1 is less than 200 mg/kg?
### Response Condition not met

### Prompt Is it true that TD50 reported for O=C(/C=C/c1ccc(Br)cc1)NCCO is less than 200 mg/kg?
### Response Condition met

### Prompt Is it true that TD50 reported for O=C(/C=C/c1ccccc1F)NCCO is less than 200 mg/kg?
### Response Condition not met

### Prompt Is it true that TD50 reported for O=C(/C=C/c1ccccc1Cl)NCCO is less than 200 mg/kg?
### Response Condition met
